Tested on: single-stranded DNA substrate m3C_FAM
EXPERIMENTAL_PROTOCOL: Enzymatic demethylation of single-stranded m3C DNA (chemical quenching, HpaII cleavage, PAGE)
Assay type: biochemical
COND: 90 min reaction, 2 µM enzyme and m3C_FAM, 40 µM Fe(II), 1 mM 2OG, 25 °C
Excerpt: The enzymatic activity of wt ALKBH3 dioxygenase and the Y143F, Y143A, L177A, and H191A mutants was investigated in a reaction with a 15nt single-stranded oligonucleotide substrate containing m3C at the ninth position from the 5’-end (see Section 4). An enzymatic hydroxylation of a single-strand m3C-containing DNA was studied using a chemical quenching technique recently described for the ALKBH2 dioxygenase in [7]. […]
MEASUREMENT_TYPE: maximum DNA substrate demethylation degree (product yield) (%)
Numbers only here, please. The scale is %.

MOLECULE: Y143A ALKBH3: ALKBH3 mutant, Tyr143 replaced with Ala (protein, UniProt Q96Q83 1-286, looked up, variant Y143A) Alpha-ketoglutarate-dependent …: MEEKRRRARVQGAWAAPVKSQAIAQPATTAKSHLHQKPGQTWKNKEHHLSDREFVFKEPQQVVRRAPEPRVIDREGVYEISLSPTGVSRVCLYPGFVDVKEADWILEQLCQDVPWKQRTGIREDITYQQPRLTAWYGELPYTASRITMEPNPHWHPVLRTLKNRIEENTGHTFNSLLCNLYRNEKDSVDWHSDDEPSLGRCPIIASLSFGATRTFEMRKKPPPEENGDYTYVERVKIPLDHGTLLIMEGATQADWQHRVPKEYHSREPRVNLTFRTVYPDPRGAPW
RECORDED_VALUE: 10

Return the recorded maximum DNA substrate demethylation degree (product yield) value; entry: Y143F ALKBH3: ALKBH3 mutant, Tyr143 replaced with Phe (protein, UniProt Q96Q83 1-286, looked up, variant Y143F) Alpha-ketoglutarate-dependent …: MEEKRRRARVQGAWAAPVKSQAIAQPATTAKSHLHQKPGQTWKNKEHHLSDREFVFKEPQQVVRRAPEPRVIDREGVYEISLSPTGVSRVCLYPGFVDVKEADWILEQLCQDVPWKQRTGIREDITYQQPRLTAWYGELPYTFSRITMEPNPHWHPVLRTLKNRIEENTGHTFNSLLCNLYRNEKDSVDWHSDDEPSLGRCPIIASLSFGATRTFEMRKKPPPEENGDYTYVERVKIPLDHGTLLIMEGATQADWQHRVPKEYHSREPRVNLTFRTVYPDPRGAPW
30
